Test: chemical genetic growth profiling, strain panel (AID 1159580);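 also: tested at 20 µM; growth read once vehicle control cultures reached saturation at 30 °C; 1 = growth at the plate median or of vehicle wells; lower values mean less growth of the strain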
Conditions: S. cerevisiae deletion strains, growth OD, locus YHR129C, strain ARP1, stronger effect = lower value
The campaign covered roughly 5,500 compounds. About 2,000 (36%) were called active. Inconclusive results (about 18%) are left out. Some of the results follow.
Property label: normalized growth
One number for each entry.

[
  {
    "Compound": "CC1(C)NC(=O)N(c2ccc([N+](=O)[O-])c(C(F)(F)F)c2)C1=O",
    "normalized growth": 1.01
  },
  {
    "Compound": "COc1cc2occ(-c3ccccc3)c(=O)c2c(OC)c1C",
    "normalized growth": 0.949
  },
  {
    "Compound": "CCCCOC(=O)c1ccccc1C(=O)OCCCC",
    "normalized growth": 0.996
  },
  {
    "Compound": "COc1ccc([C@H]2Oc3cc(OC)cc(OC)c3C[C@H]2O)cc1",
    "normalized growth": 1.02
  },
  {
    "Compound": "Oc1ccc2c(c1)OCC1c3cc4c(cc3OC21)OCO4 (stereo not given)",
    "normalized growth": 1.02
  },
  {
    "Compound": "C=C1CCC2C(CC2(C)C)C(=C)CC/C1=N\\O (stereo not given)",
    "normalized growth": 0.992
  },
  {
    "Compound": "OC(Cn1cncn1)(Cn1cncn1)c1ccc(F)cc1F",
    "normalized growth": 1
  },
  {
    "Compound": "CC1(C)O[C@@H]2CC3C4CCC5=CC(=O)CCC5(C)C4(F)C(O)CC3(C)[C@]2(C(=O)CCl)O1 (stereo not given in full)",
    "normalized growth": 0.996
  },
  {
    "Compound": "CC[C@H](C)C(=O)O[C@H]1CCC=C2C=C[C@H](C)C(CCC3C[C@@H](O)CC(=O)O3)[C@H]21 (stereo not given in full)",
    "normalized growth": 0.987
  },
  {
    "Compound": "O=c1cc[nH]c(=S)[nH]1",
    "normalized growth": 1.01
  }
]

Below are 6 compounds. Give each one its normalized growth.
1. C=C1CCC(C2CC(=O)OC2=O)C(=O)CCC2C1CC2(C)C (stereo not given)
2. COc1ccc2c(c1OC)C(=O)OC2[C@H]1c2c(cc3c(c2OC)OCO3)CCN1C (stereo not given in full)
3. CCNC(=O)CC[C@H](N)C(=O)O
4. COc1cc2c(cc1OC)C1Cc3ccc(OC)c(OC)c3CN1CC2 (stereo not given)
5. O=C(Cn1ccnc1[N+](=O)[O-])NCCO
6. Cc1cc(-c2ccccc2)nnc1NCCN1CCOCC1

1.02
0.999
0.995
1
1.01
0.996

Below are 7 compounds. Give each one its normalized growth.
1. Clc1cccc(Cl)c1NC1=NCCN1
2. O=C(O)c1cc2cc(Cc3cccnc3)ccc2o1
3. COc1c(OC)c2occc2c2oc(=O)ccc12
4. CC1(C)OC(=O)C=CC2(C)C1CC(O)C1(C)C2CCC2(C)C(c3ccoc3)OC(=O)C3OC321 (stereo not given)
5. O=C(O)CN1C(=O)c2cccc3cccc(c23)C1=O
6. O=C(O)CN(CC(=O)O)Cc1cc2c(-c3ccccc3C(=O)O)c3cc(CN(CC(=O)O)CC(=O)O)c(=O)cc-3oc2cc1O
7. CCCC(=O)O[C@]1(C(=O)CO)CCC2[C@@H]3CCC4=CC(=O)CC[C@]4(C)C3[C@@H](O)C[C@@]21C (stereo not given in full)

1. 1.01
2. 0.997
3. 0.959
4. 1
5. 0.994
6. 0.997
7. 1.01

Below are 2 compounds. Give each one its normalized growth.
1. COc1cc([C@@H]2c3cc4c(c(O)c3C[C@H]3COC(=O)[C@@H]32)OCO4)cc(OC)c1OC
2. O=C1[C@H](CCC(O)c2ccc(F)cc2)[C@@H](c2ccc(O)cc2)N1c1ccc(F)cc1 (stereo not given in full)

1: 0.993; 2: 0.987

Below are 5 compounds. Give each one its normalized growth.
1. CCCCN(CCCC)CCCOC(=O)c1ccc(N)cc1
2. C/C1=C\CCC(=O)C2CC(C)(C)C2CC1 (stereo not given)
3. Nc1nc2ncc(=O)[nH]c2c(=O)[nH]1
4. CC(C)C(=O)Nc1ccc([N+](=O)[O-])c(C(F)(F)F)c1
5. CCCCCCOc1ccccc1C(N)=O

1: 0.989; 2: 1.01; 3: 1; 4: 0.981; 5: 0.474
